Give measured growth for each item. Keep answers brief.
# System: 786-0 renal
# Assay procedure: NCI-60 one-dose screen, 48 h (100 = growth as untreated, 0 = no growth, -100 = all killed)
# Measurement parameters: 10 µM unless noted
About 83,000 compounds went through this panel and 20% of them were active in at least one assay; those are over-represented in the sample as a whole. The source made the active and inactive calls. The calls were made as follows: active = growth percent below 10; inactive = the rest.

// fetch growth for COc1cc(C(=O)c2cc(C)c3[nH]c4ccc(O)cc4c3c2C)cc(OC)c1OC ; system: 786-0 renal 13.8% (inactive)

// fetch growth for COc1cc2cc(Oc3ccc(NC(=O)Nc4ccc(F)c(C(F)(F)F)c4)cc3)c(C)nc2cc1OCCN1CCOCC1 ; system: 786-0 renal 35% (inactive)

// fetch growth for COC(=O)/C=C1\S/C(=N\Nc2ccc([N+](=O)[O-])cc2[N+](=O)[O-])N(C2CCCCC2)C1=O ; system: 786-0 renal 61.1% (inactive)

// fetch growth for NC1=C(c2nn[nH]n2)C(c2ccccc2Cl)c2ccc3ccccc3c2O1 (centres undefined) ; system: 786-0 renal 82.7% (inactive)

// fetch growth for CCc1cccc2c3c(sc12)C(c1ccc(Cl)cc1)C(C#N)=C(N)O3 (centres undefined) ; system: 786-0 renal 26.9% (inactive)

// fetch growth for N#Cc1c(-c2ccccc2)nc(SCC(=O)Nc2nc(-c3ccc(Cl)cc3)cs2)[nH]c1=O ; system: 786-0 renal 96.2% (inactive)

// fetch growth for COc1cc(/C=C2\C(=O)Nc3ccc(Br)cc32)cc(OC)c1OC ; system: 786-0 renal 84.9% (inactive)

// fetch growth for Cc1ccc(NC2=C(Cl)C(=O)c3nc(C)ccc3C2=O)cc1 ; system: 786-0 renal 21.6% (inactive)

// fetch growth for Cc1c(C(=O)NCCN2CCOCC2)cn2ncnc(Oc3ccc(NC(=O)Nc4ccc(Cl)c(C(F)(F)F)c4)cc3)c12 ; system: 786-0 renal 12.3% (inactive)

// fetch growth for Cc1cc(=O)oc2cc(OC(=O)CN3CCN(C)CC3)ccc12 ; system: 786-0 renal 105% (inactive)

// fetch growth for CCN1C(=O)N(CC)C2Nn3c(s/c(=C4\C(=O)N(CCC(C)C)c5ccccc54)c3=O)=NC21 (centres undefined) ; system: 786-0 renal 57.1% (inactive)

// fetch growth for Fc1cc(-c2nnc3sc(-c4ccc(Cl)cc4Cl)nn23)c(Cl)cc1Cl ; system: 786-0 renal 59.6% (inactive)

// fetch growth for c1cc2nc(-c3cn[nH]c3)c3c(c2cc1-c1cn[nH]c1)C1CCC3C1 (centres undefined) ; system: 786-0 renal 81.5% (inactive)

// fetch growth for CCCCCCN(CCCCCC)c1ccc(/C=C2/SC(=O)NC2=O)c(C)c1 ; system: 786-0 renal 77.6% (inactive)

// fetch growth for COc1ccc(C(=O)n2nc(-c3ccccc3)nc2N)cc1OC ; system: 786-0 renal 96.1% (inactive)

// fetch growth for Fc1cc(-c2nnc3n2NC(=Nc2ccc(Cl)cc2)CS3)c(Cl)cc1Cl ; system: 786-0 renal 81.9% (inactive)

// fetch growth for Cc1cc(N2CCCC2)nc(N(CCCNc2ccnc3cc(Cl)ccc23)Cc2ccccn2)n1 ; system: 786-0 renal 53.3% (inactive)

// fetch growth for NS(=O)(=O)c1ccc(N=Nc2ccc(-c3nn4cc(-c5ccccc5)nc4s3)cc2)cc1 ; system: 786-0 renal 94.6% (inactive)

// fetch growth for Cc1ccc(/C=C(\C#N)n2nc3cccc(F)c3n2)cc1 ; system: 786-0 renal 83.7% (inactive)

// fetch growth for COc1ccc(CN2c3ccccc3CCc3ccccc32)cc1F ; system: 786-0 renal 33.9% (inactive)

// fetch growth for O=c1c2cc(C(F)(F)F)ccc2sc2c(NCCCNCCO)nc3ccccc3c12 ; system: 786-0 renal 43% (inactive)

// fetch growth for OC(c1ccccc1)C(NC(Cc1ccccc1)c1ccccc1)c1ccccc1 (centres undefined) ; system: 786-0 renal 81.4% (inactive)

// fetch growth for C=C1CC[C@H](C(C)C)[C@@H]2[C@H]1[C@H]1CC(=C)[C@@H](O)CC[C@@](C)(O)[C@@H]2O1 ; system: 786-0 renal 82.6% (inactive)

// fetch growth for N#CC1=C(N)Oc2c(sc3c(Br)cccc23)C1c1ccc([N+](=O)[O-])cc1 (centres undefined) ; system: 786-0 renal 10.2% (inactive)

// fetch growth for CC(=O)OC[C@H]1OC(Sc2sc(C(=O)c3ccc(C)cc3)c(N)c2-c2nc3ccccc3s2)[C@H](OC(C)=O)[C@@H](OC(C)=O)[C@@H]1OC(C)=O (some centres undefined) ; system: 786-0 renal 47.4% (inactive)

// fetch growth for NCCCNc1nc2ccccc2c2c(=O)c3cc(F)cc(Cl)c3sc12 ; system: 786-0 renal 86.3% (inactive)

// fetch growth for Cc1ccc(S(=O)(=O)N/N=C/C2(c3ccccc3)CC2)cc1 ; system: 786-0 renal 112% (inactive)

// fetch growth for O=c1c2cc(F)cc(Cl)c2sc2c(NCCCNCCO)nc3ccccc3c12 ; system: 786-0 renal 81.7% (inactive)

// fetch growth for Cc1cc(-c2cc(C)c(N)cc2C)c(C)cc1N ; system: 786-0 renal 84.1% (inactive)

---

# Test system: U251 CNS
# Assay procedure: NCI-60 one-dose screen, 48 h (100 = growth as untreated, 0 = no growth, -100 = all killed)
# Measurement parameters: 10 µM unless noted
The panel holds about 83,000 compounds, 20% with a hit somewhere; the sample as a whole holds those more often.
# note: boundary value 90% maps to no (0); growth below it maps to yes (1)

Consider O=C(CCN1C(=O)/C(=C/c2ccc(O)cc2)SC1=S)Nc1ccccc1 . Does its growth lie strictly below 90%? no (0)

Consider NC1=C(c2nn[nH]n2)C(c2ccccc2Cl)c2ccc3ccccc3c2O1 (stereo not given) . Does its growth lie strictly below 90%? yes (1)

Consider C=C1C(=O)O[C@H]2[C@H]1CC/C(COC(=O)CCC(=O)NCCOCCOCC(=O)Nc1ccc(OC)c(C(N)=O)c1O)=C\CC[C@@]1(C)O[C@@H]21 . Does its growth lie strictly below 90%? no (0)

Consider NCCNc1nc2ccccc2c2c(=O)c3cc(F)ccc3sc12 . Does its growth lie strictly below 90%? yes (1)

Consider Cc1cccc(OCC(O)CN2CCN(c3ccc(Cl)cc3)CC2)c1 (stereo not given) . Does its growth lie strictly below 90%? no (0)

---

Give measured growth for each item. Keep answers brief.
# System: COLO 205 colon
# Assay procedure: NCI-60 one-dose screen, 48 h (100 = growth as untreated, 0 = no growth, -100 = all killed)
# Measurement parameters: 10 µM unless noted
The panel holds about 83,000 compounds, 20% with a hit somewhere; the sample as a whole holds those more often.
Report the value in % with no unit label.

Provide measured growth value, entry: c1ccc(OCc2nnc(-c3ccc(Oc4ccccc4)cc3)o2)cc1 104

Provide measured growth value, entry: COc1ccc(C(Cc2ccccc2)NCCN2CCOCC2)cc1 (centres undefined) 96.1

Provide measured growth value, entry: CCOC(=O)C1=C(N)Oc2c(sc3c(CC)cccc23)C1c1ccc(F)cc1 (centres undefined) 51.1

Provide measured growth value, entry: OC(COc1ccccc1)CN1CCN(c2ccc(Cl)cc2)CC1 (centres undefined) 99.3

---

# System: OVCAR-3 ovarian
# Assay procedure: NCI-60 one-dose screen, 48 h (100 = growth as untreated, 0 = no growth, -100 = all killed)
# Measurement parameters: 10 µM unless noted
# Protocol: Growth inhibition of the OVCAR-3 human tumor cell line is measured as a screen for anti-cancer activity. Cells are grown in 96 well plates and exposed to the test compound for 48 hours. Compounds are tested at a single concentration, which is 10^-5 M for most compounds. The reported endpoint is percent growth (GI% or GIPRCNT), where numbers from 0 - 100% represent growth inhibition, and numbers from -100% - 0 represent cell death. For example, a value of 40 represents 60% growth inhibition. […]
This is part of a sample that, as a whole, favours compounds with a hit. Of some 83,000 tested, about 20% had one in any assay.
# label = t if growth >= 60% else f

Does the compound CCN(CC)CCNC(=O)c1cn2ncnc(Oc3ccc(NC(=O)Nc4ccc(Cl)c(C(F)(F)F)c4)cc3)c2c1C have recorded growth that is 60% or more? f

Does the compound COc1ccc(C(=O)n2nc(-c3ccccc3)nc2N)cc1OC have recorded growth that is 60% or more? t

Does the compound COc1cc2cc(Oc3ccc(NC(=O)Nc4ccc(Cl)c(C(F)(F)F)c4)cc3)c(C)nc2cc1OCCN1CCOCC1 have recorded growth that is 60% or more? f

Does the compound N/C(=N\c1nc2ccccc2s1)NC(=O)Nc1cccc2ccccc12 have recorded growth that is 60% or more? f

Does the compound COc1c(B(O)O)cc(C)cc1-c1nc2ccc3[nH]ncc3c2c2c1CCCC2 have recorded growth that is 60% or more? t

Does the compound COc1c(C2CC(=O)Nc3c2c(C)nn3-c2nc3ccccc3[nH]2)cc2c(c1OC)OCO2 (configuration not stated) have recorded growth that is 60% or more? f

Does the compound COc1ccc(CN2c3ccccc3Sc3ccccc32)c(F)c1 have recorded growth that is 60% or more? f

Does the compound CCOC(=O)c1c2c(n(-c3ccc(C#N)cc3)c1-c1ccccc1)C=CCC2 have recorded growth that is 60% or more? t

Does the compound CCN(CC)CCNc1nc2ccccc2c2c(=O)c3cc(Cl)ccc3sc12 have recorded growth that is 60% or more? f

Does the compound C=CCNc1ccc2c3c(cccc13)C(=O)N(N1C(=O)c3cccc4cccc(c34)C1=O)C2=O have recorded growth that is 60% or more? t

Does the compound COc1nc2ccc(C)cc2cc1-c1nc2c(cnn2-c2ccc(Br)cc2)c(=O)[nH]1 have recorded growth that is 60% or more? f

Does the compound COc1ccc2sc3c(NCCCNCCO)nc4ccccc4c3c(=O)c2c1 have recorded growth that is 60% or more? f

Does the compound NCCOc1ncccc1/C=C1\C2C=CC=CC2C2C=CC(F)=CC12 (configuration not stated) have recorded growth that is 60% or more? f

Does the compound Cc1ccc(/C=N\NC(=O)c2[nH]c3ccc(F)cc3c2-c2ccccc2)cc1 have recorded growth that is 60% or more? f

Does the compound O=C(N/N=C/[C@H](O)[C@@H](O)[C@@H](O)[C@H](O)CO)c1ccc(NC(=O)c2cccnc2)cc1 have recorded growth that is 60% or more? t

Does the compound CCc1cccc2c3c(sc12)C(c1ccc(F)cc1)C(C#N)=C(N)O3 (configuration not stated) have recorded growth that is 60% or more? f

Does the compound CCCCCCCCCCCCCCCCCCOc1ccccc1CC(=O)OCC[N+](CC)(CC)CC have recorded growth that is 60% or more? f

Does the compound COc1ccc2sc3c(NCCCN(C)C)nc4ccccc4c3c(=O)c2c1 have recorded growth that is 60% or more? f

Does the compound O=C(/C=C/c1sc(Cl)nc1Cl)c1ccc(F)cc1 have recorded growth that is 60% or more? f

Does the compound COc1nc2ccc(C)cc2cc1-c1nc2c(cnn2-c2ccccc2)c(=O)[nH]1 have recorded growth that is 60% or more? f

Does the compound CCCCOc1nc2c(C)cccc2cc1-c1cc(-c2ccc(Cl)cc2)nc(-c2ccc(Cl)cc2)c1 have recorded growth that is 60% or more? t

Does the compound COc1ccc(C(=O)C(C)C)c2ccccc12 have recorded growth that is 60% or more? t

Does the compound Oc1ccc(Cl)cc1Cc1cc(Cl)cc(Cl)c1O have recorded growth that is 60% or more? f

Does the compound COc1cccc(OC)c1C(=O)N[C@@H]1C(=O)N2[C@@H]1SC(C)(C)[C@@H]2C(=O)O have recorded growth that is 60% or more? t

Does the compound Cc1cccc2c(=O)c3c(sc12)c(NCc1ccccc1)nc1ccccc13 have recorded growth that is 60% or more? t

Does the compound COc1cccc(Cc2cc(-c3ccccc3)nn(CC(=O)c3ccccc3)c2=O)c1 have recorded growth that is 60% or more? t

Does the compound c1cc(NCCc2ccncc2)nc(-n2cnc3ccccc32)c1 have recorded growth that is 60% or more? t

Does the compound Clc1ccc2c(c1)N(CCCN1CCCC1)c1ccccc1S2 have recorded growth that is 60% or more? f

Does the compound Cc1ccc2c(n1)C(=O)C(Cl)=C(Nc1ccccc1C(C)C)C2=O have recorded growth that is 60% or more? f

Does the compound COc1cc(-c2nc3sccn3c2-c2ccnc(NCCCNS(=O)(=O)c3ccc(F)cc3)n2)ccc1F have recorded growth that is 60% or more? t

Does the compound COc1cc(C2CC(c3ccc(SC)cc3)=NN2C(C)=O)cc(OC)c1OC (configuration not stated) have recorded growth that is 60% or more? f
